test system: Streptococcus pneumoniae; experiment: In vitro antibacterial activity against 5979 strain of Streptococcus pneumoniae; type: functional
Readout type: MIC (µg/mL)

INSERT INTO measurements (molecule, readout_type, recorded_number) VALUES
  ('CC[C@H]1OC(=O)/C(C)=C/[C@H](C)[C@@H](O[C@@H]2O[C@H](C)C[C@H](N(C)C)[C@H]2O)[C@@](C)(OC)C[C@@H](C)C(=O)[C@H](C)[C@H]2N(CCc3ccc(Oc4ccccc4)cc3)C(=O)O[C@]12C (stereo in doubt; 14)', 'MIC', 8);

1: CC[C@H]1OC(=O)/C(C)=C/[C@H](C)[C@@H](O[C@@H]2O[C@H](C)C[C@H](N(C)C)[C@H]2O)[C@@](C)(OC)C[C@@H](C)C(=O)[C@H](C)[C@H]2N(CCc3ccc(C)cc3)C(=O)O[C@]12C
2: CC[C@H]1OC(=O)/C(C)=C/[C@H](C)[C@@H](O[C@@H]2O[C@H](C)C[C@H](N(C)C)[C@H]2O)[C@@](C)(OC)C[C@@H](C)C(=O)[C@H](C)[C@H]2N(CCCOc3ccc4ccccc4c3)C(=O)O[C@]12C
Query: Return label of the item with the larger MIC. Candidates: 1 , 2 . Identify your pick by its label.
Reply: 1

1: CC[C@H]1OC(=O)/C(C)=C/[C@H](C)[C@@H](O[C@@H]2O[C@H](C)C[C@H](N(C)C)[C@H]2O)[C@@](C)(OC)C[C@@H](C)C(=O)[C@H](C)[C@H]2N(CCc3ccc(OCc4ccccc4)c(OCc4ccccc4)c3)C(=O)O[C@]12C
2: CC[C@H]1OC(=O)/C(C)=C/[C@H](C)[C@@H](O[C@@H]2O[C@H](C)C[C@H](N(C)C)[C@H]2O)[C@@](C)(OC)C[C@@H](C)C(=O)[C@H](C)[C@H]2N(CCc3cccc(C(F)(F)F)c3)C(=O)O[C@]12C
Query: Exercise: compare 1 and 2 ; which one has the greater MIC? Label of pick, please.
Reply: 2
